// data source = patent US9708336B2

experimental target: VIM-1 (Pseudomonas aeruginosa (strain ATCC 15692 / DSM 22644 / CIP 104116 / JCM 14847 / LMG 12228 / 1C / PRS 101 / PAO1))
test name: Enzyme activity: determination of IC50, fluorescence assay with CCF2-FA substrate (VIM-1)
Format: biochemical
condition info: fluorescence assay with CCF2-FA substrate; read-out: VIM-1 IC50
metric name: IC50 (nM)
Answers are plain numbers, in nM.

Check out these entries, answers already filled in.
NS(=O)(=O)c1nccc(N2CCC(c3cnc4n3CCCC4)CC2)c1-c1nnn[nH]1 | 226
NC1CCC(N2CCC(c3ccc(-c4ccc(C(F)(F)F)c(S(N)(=O)=O)c4-c4nnn[nH]4)cc3)CC2)CC1 (stereo not shown) | 11
CS(=O)(=O)N1CCC(c2cccc(S(N)(=O)=O)c2-c2nn[nH]n2)CC1 | 421

Let us examine a further case.
Suppose we examine the compound Nc1[nH]nc2cc(-c3cccc(S(N)(=O)=O)c3-c3nnn[nH]3)ccc12 ; what IC50 value has been reported?
16.9

----------
experimental target: NDM-1 (Klebsiella pneumoniae, UniProt C7C422)
Sequence (C7C422 whole entry, looked up, species assumed): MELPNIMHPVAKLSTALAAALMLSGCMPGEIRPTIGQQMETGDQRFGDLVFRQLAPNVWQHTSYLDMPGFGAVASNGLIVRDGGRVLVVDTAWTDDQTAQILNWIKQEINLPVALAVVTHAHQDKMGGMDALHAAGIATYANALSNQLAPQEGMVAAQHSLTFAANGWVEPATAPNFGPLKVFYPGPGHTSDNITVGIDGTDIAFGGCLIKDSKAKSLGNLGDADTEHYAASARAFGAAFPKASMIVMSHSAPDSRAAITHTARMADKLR
test name: biochemical
Assay type: biochemical
condition info: fluorescence assay with CCF2-FA substrate; read-out: NDM-1 IC50
metric name: IC50 (nM)
Numbers only, in nM.

Check out these entries, answers already filled in.
Cc1csc(-c2cccc(S(N)(=O)=O)c2-c2nn[nH]n2)n1 | 151
NCC1CCC(N2CCC(c3ccc(-c4ccc(C(F)(F)F)c(S(N)(=O)=O)c4-c4nnn[nH]4)cc3)CC2)CC1 (centres unmarked) | 7.09
NS(=O)(=O)c1cccc(C2CCCNC2)c1-c1nn[nH]n1 (centres unmarked) | 552
NS(=O)(=O)c1c(C(F)(F)F)ccc(N2CCC3(CCNC3)CC2)c1-c1nnn[nH]1 | 9.04
NC1CCC(c2ccc(CCC3CCNCC3)c(S(N)(=O)=O)c2-c2nn[nH]n2)CC1 (centres unmarked) | 68.3
NS(=O)(=O)c1cccc(-c2ccc(-n3cccn3)nc2)c1-c1nnn[nH]1 | 5.18
NS(=O)(=O)c1c(C(F)(F)F)ccc(C2CCN(C3CCNCC3)CC2)c1-c1nnn[nH]1 | 96
NS(=O)(=O)c1nccc(N2CCC(c3ccncc3)CC2)c1-c1nnn[nH]1 | 43
N=C(N)N1CCC(c2ccc(-c3cccc(S(N)(=O)=O)c3-c3nn[nH]n3)cc2)CC1 | 3.46
NS(=O)(=O)c1cccc(-c2ccc3c(c2)OCCO3)c1-c1nn[nH]n1 | 1.83

For each listed entry, give its IC50.
1. NS(=O)(=O)c1c(C(F)(F)F)ccc(-c2ccc(C3CN(CC4CNC4)C3)cc2)c1-c1nnn[nH]1
2. Cc1nc(F)ccc1-c1cccc(S(N)(=O)=O)c1-c1nn[nH]n1
3. NC1CCN(C2CCN(c3ccc(C(F)(F)F)c(S(N)(=O)=O)c3-c3nnn[nH]3)CC2)C1 (centres unmarked)
4. NCCC1CCC(N2CCC(c3ccc(-c4ccc(C(F)(F)F)c(S(N)(=O)=O)c4-c4nnn[nH]4)cc3)CC2)CC1 (centres unmarked)

1: 2.68; 2: 48.6; 3: 24.6; 4: 7.31

----------
experimental target: NDM-1 (Klebsiella pneumoniae)
test name: biochemical
Assay type: biochemical
condition info: NDM-1 enzyme, CCF2-FA substrate; read-out: NDM-1 IC50
metric name: IC50

Check out these entries, answers already filled in.
NS(=O)(=O)c1c(C2CC2)ccc(-c2cccc3ncccc23)c1-c1nn[nH]n1 | 2.2 nM
NS(=O)(=O)c1c(C(F)(F)F)ccc(-c2cccc3c2OCCN3)c1-c1nnn[nH]1 | 1.15 nM

For each listed entry, give its IC50.
1. NS(=O)(=O)c1c(C(F)(F)F)ccc(-c2ccc(-c3c[nH]c(O)n3)cc2)c1-c1nnn[nH]1.O=C(O)C(F)(F)F
2. NS(=O)(=O)c1cccc(-c2ccc(N3CC(CN4CCCC4)C3)nc2)c1-c1nnn[nH]1
3. NC1CC(N[C@H]2CC[C@H](c3ccc(C(F)(F)F)c(S(N)(=O)=O)c3-c3nnn[nH]3)CC2)C1 (stereo partly shown) [Example 694]
4. Nc1nc2c(-c3ccc(CCO)c(S(N)(=O)=O)c3-c3nn[nH]n3)cccc2s1
5. NS(=O)(=O)c1cccc(-c2ccc(C3CCN(C[C@H]4CNCCO4)CC3)cc2)c1-c1nnn[nH]1

1: 0.439 nM; 2: 32.3 nM; 3: 4.84 nM; 4: 2.07 nM; 5: 8.23 nM
